Origin of values: the supplement of paper PMC9942255

Tested on: Bacillus subtilis DB104 (SP-AmyQ fusion secretion)
Protocol details: AmyQ secretion efficiency, weighted average sort bin (1 = best secretion, 10 = worst) (bin number (weighted average, 1-10)); higher = lower secretion efficiency
Field: class. Source value: AmyQ secretion efficiency. Ranges: Low: < 3; Medium: ≥ 3 and < 6; High: ≥ 6

Example results:
                      record_sequence  class
0  MHLIRAAGAVCLAVVLIAGCRFNEDQHQGEGENT   High
1      MKKMLGKSGKQTTTGVFFAVVVKDVFAAGL   High
2            MKVLLSALLLLLFAFEPSASAKKL    Low

Let us examine a further case.
**Query** GET /class?item= MLFIFVITCVMAASLTLGSLLPAGYATAKED
**Result** Medium
